All values here come from patent US7265152B2.

- target_or_system: HCV NS5B (Hepatitis C virus genotype 1b)
- Construct: fusion protein, of which the carboxyl terminal 21 amino acids were removed to enhance its solubility; His tag (GSHHHHHH); made in house; host or cells: E. coli
- method_summary: Inhibition of viral RNA-dependent RNA polymerase (RdRp), in vitro biochemical assay
- Set-up: species or system HCV genotype 1b virus (BB7)
- measurement_conditions: HCV NS5B RdRp, BB7; activity class; read-out: HCV pol-BB7 IC50
reported_property: IC50

Sample answers from the record:
CCOCc1cc(-c2cc3oc(-c4ccc(F)cc4)c(C(=O)NC)c3cc2OC)no1 | ≤ 500 nM
CNC(=O)c1c(-c2ccc(F)cc2)oc2cc(C(C)(C)N)c(OC(C)C)cc12 | ≤ 500 nM
CCOC(=O)c1ccc(NC(=O)COc2cc3c(C(=O)NC)c(-c4ccc(F)cc4)oc3cc2N(C)S(C)(=O)=O)cc1 | ≤ 500 nM
CNC(=O)c1c(-c2ccc(F)cc2)oc2cc(N(C)S(C)(=O)=O)c(OCc3nsc(NCC4CC4)n3)cc12 | ≤ 500 nM
CNC(=O)c1c(-c2ccc(F)cc2)oc2cc(N(C)S(C)(=O)=O)c(OCc3cc(OC)cc(OC)c3)cc12 | ≤ 500 nM
CCNc1cc2oc(-c3ccc(F)cc3)c(C(=O)NC)c2c(Cl)c1OS(C)(=O)=O | ≤ 500 nM
CCc1cc2c(C(=O)NC)c(-c3ccc(F)cc3)oc2cc1N(CCF)S(C)(=O)=O | ≤ 500 nM
CNC(=O)c1c(-c2ccc(F)cc2)oc2cc(N(Cc3ccccc3)S(C)(=O)=O)c(OC(C)C)cc12 | ≤ 500 nM

Input: Quick one: IC50 of CNC(=O)c1c(-c2ccc(F)cc2)oc2cc(N(C)S(C)(=O)=O)c(OCC(C)O)cc12 (stereo not shown) ?
Output: ≤ 500 nM

Input: Quick one: IC50 of `CNC(=O)c1c(-c2ccc(F)cc2)oc2cc(N(C)S(C)(=O)=O)c(OCc3ccccc3OC(F)F)cc12` ?
Output: ≤ 500 nM
